- target.or.test.system: hGPR40 (Homo sapiens)
- Sequence (O14842 whole entry): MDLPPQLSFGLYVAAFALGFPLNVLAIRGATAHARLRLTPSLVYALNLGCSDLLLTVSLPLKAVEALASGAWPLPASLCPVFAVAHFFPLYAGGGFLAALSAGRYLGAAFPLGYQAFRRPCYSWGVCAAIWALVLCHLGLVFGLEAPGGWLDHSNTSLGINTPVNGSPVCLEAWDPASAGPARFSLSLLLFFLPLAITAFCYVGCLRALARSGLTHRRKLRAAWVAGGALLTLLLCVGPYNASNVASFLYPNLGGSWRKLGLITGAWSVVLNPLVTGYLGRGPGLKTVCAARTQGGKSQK
- test.name: FDSS-based intracellular calcium assay
- Type: cell-based
- Set-up: 3xFLAG; expressed in transfected cells
- measurement.conditions: intracellular Ca2+ response, cells expressing GPR40
- Method: FDSS-Based Intracellular Calcium Assay Compounds are dissolved in DMSO and diluted to desired concentrations with assay buffer and added to the cells as 3× solution (20 μL per well). Run fluorescence/luminescence reader FDSS (Hamamatsu) to read intracellular Ca^2+ response.
Hi! Just check whether EC50 is below 0.4 µM. Below gives yes, equal or above gives no.

Prompt line: Given the entry `CCOc1cc(N2CC[C@@H](Oc3ccc(N4N=C(C(F)(F)F)[C@@H](C)[C@@H]4CC(=O)O)cc3)[C@H](C)C2)c(F)cn1` , would its reported EC50 be below 0.4 µM?
Response line: yes

Prompt line: Given the entry `Cc1ccc(C)c(N2CCC(Oc3ccc(N4N=C(C(F)(F)F)[C@@H](C)[C@@H]4CC(=O)O)cc3)CC2)c1` , would its reported EC50 be below 0.4 µM?
Response line: no

Prompt line: Given the entry `COc1ccc(Cl)c(N2CCC(Oc3ccc(N4N=C(C(F)(F)F)[C@@H](C)[C@@H]4CC(=O)O)cc3)CC2)c1` , would its reported EC50 be below 0.4 µM?
Response line: yes

Prompt line: Given the entry `COc1ccc(C)c(N2CCC(Oc3ccc(N4N=C(C(F)(F)F)[C@@H](C)[C@@H]4CC(=O)O)cc3)CC2)c1` , would its reported EC50 be below 0.4 µM?
Response line: yes

Prompt line: Given the entry `COc1ccc(Cl)c(N2CCC(Oc3ccc(N4N=C(C(F)(F)F)[C@@H](C)[C@@H]4CC(=O)O)cc3)CC2)n1` , would its reported EC50 be below 0.4 µM?
Response line: no

Prompt line: Given the entry `CCc1cccc(N2CCC(Oc3ccc(N4N=C(C(F)(F)F)[C@@H](C)[C@@H]4CC(=O)O)cc3)CC2)c1` , would its reported EC50 be below 0.4 µM?
Response line: no

Prompt line: Given the entry CCC1C(C(F)(F)F)=NN(c2ccc(OC3CCN(c4cc(OC)ncc4Cl)CC3C)cc2)C1CC(=O)O (single isomer, unassigned) [Example 86, Isomer 1] , would its reported EC50 be below 0.4 µM?
Response line: yes

Prompt line: Given the entry `CCOc1cc(N2CC[C@@H](Oc3ccc(N4N=C(C(F)(F)F)[C@@H](C)[C@@H]4CC(=O)O)cc3)[C@H](C)C2)c(Cl)cn1` , would its reported EC50 be below 0.4 µM?
Response line: yes

Prompt line: Given the entry `C[C@@H]1C(C(F)(F)F)=NN(c2ccc(OC3CCN(c4cc(F)ccc4F)CC3)cc2)[C@H]1CC(=O)O` , would its reported EC50 be below 0.4 µM?
Response line: no

Prompt line: Given the entry COc1ccc(F)c(N2CCC(Oc3ccc(N4N=C(C(F)(F)F)[C@@H](C)[C@@H]4CC(=O)O)cc3)C(F)C2)c1 (single isomer, unassigned) [Example 57 (Isomer 2)] , would its reported EC50 be below 0.4 µM?
Response line: yes

Prompt line: Given the entry `CCOc1ccc(F)c(N2CCC(Oc3ccc(N4N=C(c5ccc(C#N)cc5F)[C@@H](C)[C@@H]4CC(=O)O)cc3)CC2)c1` , would its reported EC50 be below 0.4 µM?
Response line: yes

Prompt line: Given the entry `C[C@@H]1C(C(F)(F)F)=NN(c2ccc(OC3CCN(c4cccc(Cl)c4)CC3)cc2)[C@H]1CC(=O)O` , would its reported EC50 be below 0.4 µM?
Response line: no

Prompt line: Given the entry COc1ccc(F)c(N2CCC(Oc3ccc(N4N=C(c5ncccn5)C(C)C4CC(=O)O)cc3)CC2)c1 (single isomer, unassigned) [Example 22, Isomer 2] , would its reported EC50 be below 0.4 µM?
Response line: no

Prompt line: Given the entry `COc1cc(N2CC[C@@H](Oc3ccc(N4N=C(C(F)(F)F)[C@@H](C)[C@@H]4CC(=O)O)cc3Br)[C@H](C)C2)c(Cl)cn1` , would its reported EC50 be below 0.4 µM?
Response line: yes

Prompt line: Given the entry `C[C@@H]1C(C(F)(F)F)=NN(c2ccc(OC3CCN(c4ncccc4Cl)CC3)cc2)[C@H]1CC(=O)O` , would its reported EC50 be below 0.4 µM?
Response line: yes

Prompt line: Given the entry `COc1cc(N2CCC(Oc3ccc(N4N=C(C(F)(F)F)[C@@H](C)[C@@H]4CC(=O)O)cc3)CC2)c(F)cn1` , would its reported EC50 be below 0.4 µM?
Response line: yes

Prompt line: Given the entry `Cc1ccc(F)c(N2CCC(Oc3ccc(N4N=C(C(F)(F)F)[C@@H](C)[C@@H]4CC(=O)O)cc3)CC2)c1` , would its reported EC50 be below 0.4 µM?
Response line: no

Prompt line: Given the entry `Cc1ccccc1N1CCC(Oc2ccc(N3N=C(C(F)(F)F)[C@@H](C)[C@@H]3CC(=O)O)cc2)CC1` , would its reported EC50 be below 0.4 µM?
Response line: no

Prompt line: Given the entry COc1ccc(F)c(N2CCC(Oc3ccc(N4N=C(C(F)(F)F)[C@@H](CC5CC5)[C@@H]4CC(=O)O)cc3)CC2)c1 (single isomer, unassigned) [Example 90, Isomer 1] , would its reported EC50 be below 0.4 µM?
Response line: no

Prompt line: Given the entry COc1cc(N2CCC(Oc3ccc(N4N=C(C(F)(F)F)[C@@H](C)[C@@H]4CC(=O)O)cc3)C(F)C2)c(Cl)cn1 (single isomer, unassigned) [Example A1, Isomer 1] , would its reported EC50 be below 0.4 µM?
Response line: yes

Prompt line: Given the entry `COc1ccc(F)c(N2CCC(Oc3ccc(N4N=C(C(F)(F)F)[C@@H](C)[C@@H]4CC(=O)O)cc3)CC2)c1` , would its reported EC50 be below 0.4 µM?
Response line: yes

Prompt line: Given the entry CCC1C(C(F)(F)F)=NN(c2ccc(OC3CCN(c4cc(OC)ncc4Cl)CC3C)cc2)C1CC(=O)O (single isomer, unassigned) [Example 86, Isomer 2] , would its reported EC50 be below 0.4 µM?
Response line: no

Prompt line: Given the entry `CCOc1ccc(F)c(N2CCC(Oc3ccc(N4N=C(c5ccc(F)cc5)[C@@H](C)[C@@H]4CC(=O)O)cc3)CC2)c1` , would its reported EC50 be below 0.4 µM?
Response line: yes

Prompt line: Given the entry `Cc1ccc(Cl)c(N2CCC(Oc3ccc(N4N=C(C(F)(F)F)[C@@H](C)[C@@H]4CC(=O)O)cc3)CC2)c1` , would its reported EC50 be below 0.4 µM?
Response line: yes

Prompt line: Given the entry `COc1ccc(N2CCC(Oc3ccc(N4N=C(C(F)(F)F)[C@@H](C)[C@@H]4CC(=O)O)cc3)CC2)cc1F` , would its reported EC50 be below 0.4 µM?
Response line: no

These entries and their values trace back to patent US9133163B2.
